Listed below are compounds with pIC50 for High affinity nerve growth factor receptor (Homo sapiens, UniProt P04629), each taken from published literature.
pIC50: −log10 of the molar value.
PROPERTY LABEL: pIC50

[[record]]
compound = "COCCN1C[C@@H](NC(=O)Nc2sc(C(=O)N(C)C)nc2-c2ccccc2)[C@H](c2ccc(F)c(F)c2)C1"
target_under_test = "High affinity nerve growth factor receptor (Homo sapiens, UniProt P04629)"
measured_result = "6.00 to 7.00"

[[record]]
compound = "COc1cc(C(C)n2cnc3cc(-c4cnn(C)c4)ccc32)ccc1OCc1ccc(C(F)(F)F)nc1 (stereo not shown)"
target_under_test = "High affinity nerve growth factor receptor (Homo sapiens, UniProt P04629)"
measured_result = 6.99

[[record]]
compound = "COCCN1C[C@@H](NC(=O)Nc2c3c(nn2-c2ccccc2)CCC3)[C@H](c2ccc(F)c(F)c2)C1 (relative stereo)"
target_under_test = "High affinity nerve growth factor receptor (Homo sapiens, UniProt P04629)"
measured_result = "> 7.00"

[[record]]
compound = "COCCN1C[C@@H](NC(=O)Nc2c(C)c(C[C@H](C)O)nn2-c2ccccc2)[C@H](c2ccc(F)c(F)c2)C1"
target_under_test = "High affinity nerve growth factor receptor (Homo sapiens, UniProt P04629)"
measured_result = "> 7.00"

[[record]]
compound = "COc1cc([C@@H](C)n2c(N)nc3cc(-c4cnn(C)c4)cnc32)ccc1OCc1ccc(C(F)(F)F)cc1 (single isomer, unassigned)"
target_under_test = "High affinity nerve growth factor receptor (Homo sapiens, UniProt P04629)"
measured_result = 8.30

[[record]]
compound = "Cn1cc(C(=O)Nc2ccc(Oc3ccnc4cc(OC5CCOC5)c5c(c34)OCCO5)c(F)c2)c(=O)n(-c2ccc(F)cc2)c1=O (stereo not shown)"
target_under_test = "High affinity nerve growth factor receptor (Homo sapiens, UniProt P04629)"
measured_result = "> 7.30"

[[record]]
compound = "CC[C@H](O)COc1nn(-c2ccccc2)c(NC(=O)N[C@@H]2CN(CCOC)C[C@H]2c2ccc(F)c(F)c2)c1C"
target_under_test = "High affinity nerve growth factor receptor (Homo sapiens, UniProt P04629)"
measured_result = "> 7.00"

[[record]]
compound = "COCCN1C[C@@H](NC(=O)Nc2c(C(N)=O)c(C)nn2-c2ccccc2)[C@H](c2ccc(F)c(Cl)c2)C1 (relative stereo)"
target_under_test = "High affinity nerve growth factor receptor (Homo sapiens, UniProt P04629)"
measured_result = "> 7.00"

[[record]]
compound = "Cc1nc(-c2ccccc2)c(NC(=O)Nc2c(C)c(-c3cnn(C)c3)nn2-c2ccccc2)s1"
target_under_test = "High affinity nerve growth factor receptor (Homo sapiens, UniProt P04629)"
measured_result = "> 7.00"

[[record]]
compound = "COCCN1C[C@@H](NC(=O)Nc2ccc(-c3ccccc3)nc2C)[C@H](c2ccccc2)C1"
target_under_test = "High affinity nerve growth factor receptor (Homo sapiens, UniProt P04629)"
measured_result = "6.00 to 7.00"

[[record]]
compound = "CN1CCC(N2Cc3cc4nc(-c5c(NC[C@@H](O)c6cccc(Cl)c6)cc[nH]c5=O)[nH]c4cc3C2=O)CC1"
target_under_test = "High affinity nerve growth factor receptor (Homo sapiens, UniProt P04629)"
measured_result = "> 6.30"

[[record]]
compound = "COCCN1C[C@@H](NC(=O)Nc2c(Cl)c(C(F)(F)CO)nn2-c2ccccc2)[C@H](c2cc(F)cc(F)c2)C1"
target_under_test = "High affinity nerve growth factor receptor (Homo sapiens, UniProt P04629)"
measured_result = "> 7.00"

[[record]]
compound = "COCCN1C[C@@H](NC(=O)Nc2cc(C)nn2-c2ccccc2)[C@H](c2ccccc2)C1 (relative stereo)"
target_under_test = "High affinity nerve growth factor receptor (Homo sapiens, UniProt P04629)"
measured_result = "> 7.00"

[[record]]
compound = "CC(C)Oc1nc(N2C[C@@H]3CCN(CCO)[C@@H]3C2)ccc1NC(=O)c1coc2c1C(=O)NC(C)(C)C2"
target_under_test = "High affinity nerve growth factor receptor (Homo sapiens, UniProt P04629)"
measured_result = 7.01

[[record]]
compound = "CC1(C)CCc2ncc(F)cc2C2CCCN2c2ccn3ncc(c3n2)NC1=O (racemic)"
target_under_test = "High affinity nerve growth factor receptor (Homo sapiens, UniProt P04629)"
measured_result = "6.00 to 7.00"

[[record]]
compound = "COCCN1C[C@@H](NC(=O)Nc2cc(C)nn2C)[C@H](c2ccccc2)C1 (relative stereo)"
target_under_test = "High affinity nerve growth factor receptor (Homo sapiens, UniProt P04629)"
measured_result = "5.00 to 6.00"

[[record]]
compound = "Cn1cc(C(=O)Nc2ccc(Oc3ccnc4cc(OCCCN5CCOCC5)c5c(c34)OCCO5)cc2Cl)c(=O)n(-c2ccc(F)cc2)c1=O"
target_under_test = "High affinity nerve growth factor receptor (Homo sapiens, UniProt P04629)"
measured_result = "> 7.30"

[[record]]
compound = "Cc1c(-c2cnn(C)c2)nn(-c2ccccc2)c1NC(=O)N[C@@H]1CN(Cc2csnn2)C[C@H]1c1ccc(F)c(F)c1"
target_under_test = "High affinity nerve growth factor receptor (Homo sapiens, UniProt P04629)"
measured_result = "> 7.00"

[[record]]
compound = "COc1cc(Cc2c[nH]c3ncc(S(C)(=O)=O)cc23)c(F)cc1OCc1nc2ccccc2[nH]1"
target_under_test = "High affinity nerve growth factor receptor (Homo sapiens, UniProt P04629)"
measured_result = "≥ 5.00"

[[record]]
compound = "COCCN1C[C@@H](NC(=O)Nc2ccnn2-c2ccccc2)[C@H](c2ccccc2)C1 (relative stereo)"
target_under_test = "High affinity nerve growth factor receptor (Homo sapiens, UniProt P04629)"
measured_result = "6.00 to 7.00"

[[record]]
compound = "CCOc1nn(-c2ccccc2)c(NC(=O)N[C@@H]2CN(c3ccnn3C)C[C@H]2c2ccccc2)c1C"
target_under_test = "High affinity nerve growth factor receptor (Homo sapiens, UniProt P04629)"
measured_result = "> 7.00"

[[record]]
compound = "CC(=O)Nc1ccc(-c2cc(OC3CCOCC3)c3c(C)n[nH]c3c2)cc1N1CCN(Cc2cccc(F)c2)CC1"
target_under_test = "High affinity nerve growth factor receptor (Homo sapiens, UniProt P04629)"
measured_result = 7.60

[[record]]
compound = "CN1CCN(c2ccc(NC(=O)c3coc4c3C(=O)NCC4)nc2)CC1"
target_under_test = "High affinity nerve growth factor receptor (Homo sapiens, UniProt P04629)"
measured_result = 6.55

[[record]]
compound = "COCCN1C[C@@H](NC(=O)Nc2c(C)c(-c3cncc(F)c3)nn2-c2ccccc2)[C@H](c2ccc(F)c(F)c2)C1"
target_under_test = "High affinity nerve growth factor receptor (Homo sapiens, UniProt P04629)"
measured_result = "> 7.00"

[[record]]
compound = "COCCN1C[C@@H](NC(=O)Nc2c(C)c(-c3cnn(C)c3)nn2-c2ccccc2)[C@H](c2cc(F)c(F)c(F)c2)C1"
target_under_test = "High affinity nerve growth factor receptor (Homo sapiens, UniProt P04629)"
measured_result = "> 7.00"

[[record]]
compound = "C[C@@H]1CCc2cnc(F)cc2C2CCCN2c2ccc3ncc(n3n2)C(=O)N1 (stereo partly shown)"
target_under_test = "High affinity nerve growth factor receptor (Homo sapiens, UniProt P04629)"
measured_result = "< 6.00"

[[record]]
compound = "N#Cc1ccnc2[nH]cc(C(=O)c3c(F)ccc(NS(=O)(=O)c4ccc(C(F)(F)F)cc4)c3F)c12"
target_under_test = "High affinity nerve growth factor receptor (Homo sapiens, UniProt P04629)"
measured_result = "5.00 to 6.00"

[[record]]
compound = "Cn1cc2cc(NC(=O)c3coc4c3C(=O)CC3(CCC3)C4)ccc2n1"
target_under_test = "High affinity nerve growth factor receptor (Homo sapiens, UniProt P04629)"
measured_result = 7.36

